# Target: T1, cMetECDHis (human, UniProt P08581 25-932, limits assumed, biotinylated in the cross-block ELISA of Example 17)
# T1 construct: Expressed in HEK-293F cells; also called soluble cMetECDHis; biotinylated cMetECDHis
# Test description: cross-block ELISA; competitor 069
As shown below, each of these binders has a reported residual binding, % of no competitor value.
Property: residual binding, % of no competitor (%)

1) IgG1-1016-022 (antibody, V domains shown, also called TH1016-022; PC1016-022) VH: QVQLVESGGGVVQPGRSLRLSCAASGFTFSSYAMHWVRQAPGKGLEWVAVISYDGSNKYYADSVKGRFTISRDNSKNTLYLQMNSLRAEDTAVYYCARELLWFGELWGYFDLWGRGTLVTVSS VL: DIQMTQSPSSVSASVGDRVTITCRASQGISSWLAWYQHKPGKAPKLLIYAASSLQSGVPSRFSGSGSGTDFTLTISSLQPEDFATYYCQEASSFTWTFGQGTKVEIK    99.6
2) anti-c-Met HuMab 008 (IgG1) (antibody, V domains shown, also called TH1016-008; PC1016-008) VH: EVQLVQSGAEVKKPGESLKISCKGSGYSFTSYWIGWVRQMPGKGLEWMGIIYPGDSETRYSPSFQGQVTISADKSISTAYLQWSSLKASDTAMYYCARQEITGEFDYWGQGTLVTVSS VL: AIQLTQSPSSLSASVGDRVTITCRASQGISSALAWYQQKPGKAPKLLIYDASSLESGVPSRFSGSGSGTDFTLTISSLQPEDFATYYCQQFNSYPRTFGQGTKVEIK    104
